meta.source: patent EP4692090A1

pIC50 values for the molecules below.
- SYSTEM TESTED: ATR kinase (Homo sapiens, UniProt Q13535)
- Construct: purchased Eurofins 14-953
- Sequence (Q13535 whole entry): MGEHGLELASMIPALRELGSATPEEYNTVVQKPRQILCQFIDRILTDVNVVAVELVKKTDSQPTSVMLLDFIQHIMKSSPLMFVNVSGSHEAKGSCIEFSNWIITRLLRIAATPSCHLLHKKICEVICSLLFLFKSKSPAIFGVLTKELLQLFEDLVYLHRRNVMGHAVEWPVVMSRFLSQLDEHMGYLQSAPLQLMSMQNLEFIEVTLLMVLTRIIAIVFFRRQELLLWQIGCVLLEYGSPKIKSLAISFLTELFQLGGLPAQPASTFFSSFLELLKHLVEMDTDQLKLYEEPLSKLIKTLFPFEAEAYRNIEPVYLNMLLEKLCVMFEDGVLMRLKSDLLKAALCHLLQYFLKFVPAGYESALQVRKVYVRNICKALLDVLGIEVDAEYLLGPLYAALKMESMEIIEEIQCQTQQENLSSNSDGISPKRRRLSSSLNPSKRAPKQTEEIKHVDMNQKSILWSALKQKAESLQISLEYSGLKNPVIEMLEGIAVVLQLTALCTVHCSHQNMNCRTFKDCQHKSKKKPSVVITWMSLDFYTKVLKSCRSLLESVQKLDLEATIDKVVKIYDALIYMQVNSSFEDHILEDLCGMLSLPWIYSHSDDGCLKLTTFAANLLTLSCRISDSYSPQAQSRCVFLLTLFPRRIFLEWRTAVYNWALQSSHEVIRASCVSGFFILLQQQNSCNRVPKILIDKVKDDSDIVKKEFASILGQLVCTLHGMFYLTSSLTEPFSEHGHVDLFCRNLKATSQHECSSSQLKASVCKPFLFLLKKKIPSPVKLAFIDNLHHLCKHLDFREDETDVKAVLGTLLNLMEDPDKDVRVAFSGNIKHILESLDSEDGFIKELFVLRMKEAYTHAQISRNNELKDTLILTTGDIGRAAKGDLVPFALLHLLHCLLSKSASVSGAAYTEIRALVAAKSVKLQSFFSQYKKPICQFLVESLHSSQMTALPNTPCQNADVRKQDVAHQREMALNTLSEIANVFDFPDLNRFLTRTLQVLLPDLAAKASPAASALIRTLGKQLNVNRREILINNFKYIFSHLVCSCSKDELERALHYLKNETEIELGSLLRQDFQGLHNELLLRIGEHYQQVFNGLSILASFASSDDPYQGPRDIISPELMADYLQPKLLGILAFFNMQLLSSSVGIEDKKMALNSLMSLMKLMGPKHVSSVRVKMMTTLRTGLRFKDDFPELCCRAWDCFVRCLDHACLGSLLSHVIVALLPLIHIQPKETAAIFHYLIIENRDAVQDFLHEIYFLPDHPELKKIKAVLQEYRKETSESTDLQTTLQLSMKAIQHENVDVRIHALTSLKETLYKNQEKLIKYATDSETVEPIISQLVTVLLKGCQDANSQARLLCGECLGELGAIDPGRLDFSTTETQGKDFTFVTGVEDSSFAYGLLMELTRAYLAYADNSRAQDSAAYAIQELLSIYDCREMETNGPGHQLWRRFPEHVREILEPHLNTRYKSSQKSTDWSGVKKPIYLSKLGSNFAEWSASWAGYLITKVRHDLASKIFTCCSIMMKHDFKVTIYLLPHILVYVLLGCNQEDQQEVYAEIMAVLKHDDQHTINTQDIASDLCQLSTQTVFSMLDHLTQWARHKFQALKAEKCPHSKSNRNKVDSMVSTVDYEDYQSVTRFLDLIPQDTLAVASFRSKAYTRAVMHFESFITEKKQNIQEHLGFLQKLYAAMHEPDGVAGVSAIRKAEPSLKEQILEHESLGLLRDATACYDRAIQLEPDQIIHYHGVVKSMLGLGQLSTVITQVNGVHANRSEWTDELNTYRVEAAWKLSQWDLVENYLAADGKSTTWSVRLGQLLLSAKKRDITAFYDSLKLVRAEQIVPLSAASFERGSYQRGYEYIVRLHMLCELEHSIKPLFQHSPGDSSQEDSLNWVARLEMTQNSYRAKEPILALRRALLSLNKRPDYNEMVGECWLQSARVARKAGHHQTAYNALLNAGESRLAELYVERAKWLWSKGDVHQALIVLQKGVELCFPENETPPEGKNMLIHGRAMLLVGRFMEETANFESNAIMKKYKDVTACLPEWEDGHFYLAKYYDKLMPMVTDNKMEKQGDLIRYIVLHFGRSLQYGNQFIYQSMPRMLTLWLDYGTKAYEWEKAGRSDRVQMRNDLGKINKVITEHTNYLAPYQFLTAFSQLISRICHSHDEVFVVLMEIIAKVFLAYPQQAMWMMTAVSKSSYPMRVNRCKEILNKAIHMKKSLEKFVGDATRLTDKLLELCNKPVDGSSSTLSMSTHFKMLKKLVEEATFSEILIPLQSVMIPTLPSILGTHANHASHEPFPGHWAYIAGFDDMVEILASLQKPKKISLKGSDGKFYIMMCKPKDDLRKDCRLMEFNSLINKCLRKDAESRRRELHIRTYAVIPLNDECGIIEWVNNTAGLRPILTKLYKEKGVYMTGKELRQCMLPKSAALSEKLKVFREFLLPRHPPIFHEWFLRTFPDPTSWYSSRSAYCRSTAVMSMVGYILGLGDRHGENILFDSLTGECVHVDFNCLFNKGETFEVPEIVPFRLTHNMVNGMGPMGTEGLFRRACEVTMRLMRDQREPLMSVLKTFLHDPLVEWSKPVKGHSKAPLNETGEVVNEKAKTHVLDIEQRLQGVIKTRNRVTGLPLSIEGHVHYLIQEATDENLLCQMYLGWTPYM
- Sequence (Q8WXE1 whole entry partner): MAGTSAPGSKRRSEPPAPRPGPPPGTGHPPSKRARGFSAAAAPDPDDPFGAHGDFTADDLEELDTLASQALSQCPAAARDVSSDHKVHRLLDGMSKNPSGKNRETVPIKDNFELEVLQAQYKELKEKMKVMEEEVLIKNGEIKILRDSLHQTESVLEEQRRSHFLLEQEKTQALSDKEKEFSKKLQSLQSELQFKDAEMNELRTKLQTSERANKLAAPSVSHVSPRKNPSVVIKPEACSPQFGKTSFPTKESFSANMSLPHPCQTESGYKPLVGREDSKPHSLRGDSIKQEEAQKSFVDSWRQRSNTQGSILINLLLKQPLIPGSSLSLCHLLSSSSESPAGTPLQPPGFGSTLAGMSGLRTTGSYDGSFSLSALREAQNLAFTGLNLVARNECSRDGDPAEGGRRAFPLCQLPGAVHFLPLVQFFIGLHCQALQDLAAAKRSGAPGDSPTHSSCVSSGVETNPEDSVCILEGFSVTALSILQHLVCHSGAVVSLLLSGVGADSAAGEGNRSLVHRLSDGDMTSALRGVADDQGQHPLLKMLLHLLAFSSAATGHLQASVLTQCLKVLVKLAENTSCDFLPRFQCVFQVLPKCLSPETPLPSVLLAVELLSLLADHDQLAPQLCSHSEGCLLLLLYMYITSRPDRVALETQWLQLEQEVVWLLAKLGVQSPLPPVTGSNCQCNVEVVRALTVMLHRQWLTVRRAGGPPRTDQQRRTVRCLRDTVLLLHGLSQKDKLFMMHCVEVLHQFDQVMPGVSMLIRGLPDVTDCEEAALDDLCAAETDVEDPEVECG
- ASSAY SUMMARY: Inhibitory effect on ATR kinase activity (Caliper mobility shift, FAM-labeled RAD17 peptide substrate)
- Format: biochemical
- CONDITION PARAMETERS: 1 nM ATR kinase (Eurofins), 28°C for 3 hours, maximum concentration 1 µM, 10 concentrations, read-out: ATR kinase IC50
pIC50: −log10 of the molar value.

For orientation, consider the following solved cases.
# MOLECULE, ASSAY VALUE
rows = [
    ("CCC1c2cc(N3CCOC[C@H]3C)nc3c2c(nn3-c2cc[nH]n2)CCN1S(C)(=O)=O (single isomer, unassigned) [Compound 144B]", "> 8.00"),
    ("C[C@@H]1COCCN1c1cc2c3c(nn(-c4cc[nH]n4)c3n1)CCN(C1CC3CCC(C1)O3)C2 (some centres unmarked)", "6.00 to 7.00"),
    ("C[C@@H]1COCCN1c1cc2c3c(n1)c(-c1cc[nH]n1)nn3CCN(S(C)(=O)=O)C2", "7.00 to 8.00"),
]

Q. # get_value(readout='pIC50', item= C[C@@H]1COCCN1c1cc2c3c(nn(-c4cc[nH]n4)c3n1)CCN(C)C2C1CC1 (single isomer, unassigned) [Compound 142B] )
A. > 8.00

Q. Entry CC1c2cc(N3CCOC[C@H]3C)nc3c2c(nn3-c2cc[nH]n2)CCN1S(C)(=N)=O (single isomer, unassigned) [Compound 46C] : reported pIC50 = ?
A. > 8.00

Q. Item CC1c2cc(N3CCOC[C@H]3C)nc3c2c(nn3-c2cc[nH]n2)CCN1S(=O)(=O)C1CC1F (single isomer, unassigned) [Compound 151C] has what recorded pIC50?
A. 7.00 to 8.00

Q. Field request: pIC50 | item: C[C@@H]1COCCN1c1cc2c3c(nn(-c4cc[nH]n4)c3n1)CCN(C(=O)C1CC3(C1)CC3(F)F)C2 (single isomer, unassigned) [Compound 20B]
A. 7.00 to 8.00

Q. Requested read-out: pIC50. Entry: "CC1=NCCn2nc(-c3cc[nH]n3)c3nc(N4CCOC[C@H]4C)cc1c32"
A. 7.00 to 8.00

Q. Quick check: pIC50 of "C[C@@H]1COCCN1c1cc2c3c(n1)c(-c1cc[nH]n1)nn3CCC(=O)N2CCC(F)(F)F" ?
A. 7.00 to 8.00

Q. Could you tell me which pIC50 is on file for "C[C@@H]1COCCN1c1cc2c3c(nn(-c4cc[nH]n4)c3n1)CCN(S(=O)(=O)C1CC1)C2" ?
A. > 8.00

Q. Consider the molecule shown here: CC1COCC1N1CCc2nn(-c3cc[nH]n3)c3nc(N4CCOC[C@H]4C)cc(c23)C1 (some centres unmarked) What is its recorded pIC50?
A. 7.00 to 8.00
